All values here come from patent US20240400701A1.

- SYSTEM: T1, human AMHRII (anti-Mullerian hormone receptor type 2) (human, UniProt Q16671 18-573)
- T1 construct: whole, on cells; also called AMHR2; human AMHR2
- T1 sequence (looked up): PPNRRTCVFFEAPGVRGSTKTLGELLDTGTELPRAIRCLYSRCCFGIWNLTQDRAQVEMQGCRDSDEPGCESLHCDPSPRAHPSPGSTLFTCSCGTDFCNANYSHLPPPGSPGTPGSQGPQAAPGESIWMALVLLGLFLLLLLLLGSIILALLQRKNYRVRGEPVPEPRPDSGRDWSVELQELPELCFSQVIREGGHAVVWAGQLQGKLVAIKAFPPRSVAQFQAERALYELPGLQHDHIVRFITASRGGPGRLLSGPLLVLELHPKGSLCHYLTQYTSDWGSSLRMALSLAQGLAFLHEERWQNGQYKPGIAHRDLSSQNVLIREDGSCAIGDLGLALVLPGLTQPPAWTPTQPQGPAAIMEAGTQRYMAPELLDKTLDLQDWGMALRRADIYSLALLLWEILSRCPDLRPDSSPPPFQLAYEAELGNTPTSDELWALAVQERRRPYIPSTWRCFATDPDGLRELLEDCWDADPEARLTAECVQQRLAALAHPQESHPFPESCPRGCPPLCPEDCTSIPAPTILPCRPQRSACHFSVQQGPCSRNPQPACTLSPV
- EXPERIMENT: FACS on Rko cells over-expressing human AMHR2
Below, each of the binders is paired with its reported Top (MFI) value.
Report only the number, with the unit MFI understood.

// known answers, use as guide
| BINDER | Top (MFI) |
| --- | --- |
| xi94C4C3 hIgG1 (antibody, V domains shown, Murine variable domains in human chimeric format, human IgG1; also called xi94C4C3 hlgG1; 94C4C3 (chimeric)) VH: DVQLQESGPGLVKPSQSLSLTCTVTGYSITSDYAWNWIRQFPGNKLEWMGYISYSGSISYNPSLKSRISITRDTSKNQFFLQLNSVTTEDTATYYCARSRYSWFDYWGQGTLVTVSA VL: DIVLTQSPTSLAVSLGQRATLSCSASESVDTYGNSFMHWYQQKPGQPPKLLIYRASSLESGIPVRFSGSGSRTDFTLTINPVEAADVATYYCQQSNEDPYTFGGGTKLEIK | 19000 |
| xi31D9B3 hIgG1 (antibody, V domains shown, Murine variable domains in human chimeric format, human IgG1; also called xi31D9B3 hlgG1; 31D9B3 hlgG1) VH: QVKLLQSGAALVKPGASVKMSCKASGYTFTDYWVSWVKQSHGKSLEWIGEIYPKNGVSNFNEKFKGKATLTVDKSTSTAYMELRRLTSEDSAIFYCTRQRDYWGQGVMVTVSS VL: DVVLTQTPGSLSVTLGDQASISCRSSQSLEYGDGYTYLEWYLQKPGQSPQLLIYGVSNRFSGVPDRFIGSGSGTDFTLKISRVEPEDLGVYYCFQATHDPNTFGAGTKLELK | 18600 |

Prompt line: Value lookup for Top (MFI); key = 31D9B3 VH1.3-VL2.2 hIgG1 (antibody, V domains shown, Humanized, PTM de-risked, human IgG1; also called 31D9B3 VH1.3-VL2.2 hlgG1) VH: QVQLVQSGAEVKKPGASVKVSCKASGYTFTDYWVSWVRQAPGQGLEWMGEIYPKNQVSNFNEKFKGRVTMTTDTSTSTAYMELRSLRSDDTAVYYCARQRDYWGQGTLVTVSS VL: DVVMTQSPLSLPVTLGQPASISCRSSQSLEYGDRYTYLEWYLQRPGQSPRLLIYGVSNRFSGVPDRFSGSGSGTDFTLKISRVEAEDVGVYYCFQATHDPNTFGQGTKLEIK
Response line: 16400

Prompt line: Value lookup for Top (MFI); key = 94C4C3 H1L1 hIgG1 (antibody, V domains shown, Humanized, human IgG1; also called 94C4C3 H1L1 hlgG1) VH: QLQLQESGPGLVKPSETLSLTCTVSGYSITSDYAWNWIRQPPGKGLEWIGYISYSGSISYNPSLKSRVTISVDTSKNQFSLKLSSVTAADTAVYYCARSRYSWFDYWGQGTLVTVSS VL: EIVLTQSPGTLSLSPGERATLSCSASESVDTYGNSFMHWYQQKPGQAPRLLIYRASSLESGIPDRFSGSGSGTDFTLTISRLEPEDFAVYYCQQSNEDPYTFGGGTKVEIK
Response line: 18900

Prompt line: Value lookup for Top (MFI); key = 108F3D1E9 H1L1 hIgG1 (antibody, V domains shown, Humanized, PTM de-risked VH, human IgG1; also called 108F3D1E9 H1L1 hlgG1) VH: QLQLQESGPGLVKPSETLSLTCTVSGYSITSDFAWNWIRQPPGKGLEWIGYISFSGSTSYNPSLKSRVTISVDTSKNQFSLKLSSVTAADTAVYYCARSRYSWFAYWGQGTLVTVSS VL: DIQMTQSPSSLSASVGDRVTITCRASESVDTYGNSFMHWYQQKPGKAPKLLIYRASNLESGVPSRFSGSGSGTDFTLTISSLQPEDFATYYCQQSNEDPYTFGGGTKVEIK
Response line: 16200
